# test-details: Permeability across apical to basolateral side in human Caco2 cells
# particulars: Caco-2

structure-notation: Cc1c(C(=O)O)sc2ccc(NC(=O)C3(NC(=O)c4ccc5c(C6CCCCC6)c(-c6ccccn6)n(C)c5c4)CCC3)cc12
value-unit: ×10⁻⁶ cm/s
Papp A→B: 0.6

structure-notation: CN1CC[C@@](NC(=O)c2ccc3c(C4CCCCC4)c(-c4ccccn4)n(C)c3c2)(C(=O)Nc2ccc(/C=C/C(=O)O)cc2)C1
value-unit: ×10⁻⁶ cm/s
Papp A→B: 8.1

structure-notation: Cn1c(-c2ccccn2)c(C2CCCCC2)c2ccc(C(=O)N[C@@]3(C(=O)Nc4ccc(/C=C/C(=O)O)cc4)CCCNC3)cc21
value-unit: ×10⁻⁶ cm/s
Papp A→B: 0.6
